From: ChEMBL document CHEMBL3351357

Measured IC50 by item
Assay summary: Inhibition of rabbit erythrocyte S-adenosylhomocysteine hydrolase
Design: species or system Oryctolagus cuniculus
Could you give me the number in nM? Just the number is fine.

- Nc1ncnc2c1ncn2[C@@H]1C=C(CO)[C@@H](O)[C@H]1O: 0.9

Continue with the next compound.
Memo: Nc1ncnc2c1ncn2C1=C[C@H](CO)[C@@H](O)[C@H]1O , reported IC50: 0.9

###

Assay summary: Cytotoxicity against human HG23 cells
Format: cell-based
Recorded measurements of CC50, one per entry

* Nc1ncnc2c1ncn2C1=C[C@@H](CO)[C@H](O)[C@@H]1O | > 300 µM

Would you kindly look at the next entry?
Reported CC50 ( Nc1ncnc2c1ncn2C1=C[C@H](CO)[C@@H](O)[C@H]1O ) = > 100 µM
